test system: dd strain mice; conditions: mouse, in vivo, iv
LD50 values by entry

>  <Molecule>
C[C@@H]1C[C@H]2[C@@H]3CCC4=CC(=O)C=C[C@]4(C)[C@@]3(F)[C@@H](O)C[C@]2(C)[C@@]1(O)C(=O)COP(=O)(O)O [dexamethasone phosphate]

>  <LD50>
115 mg/kg

$$$$
>  <Molecule>
CCCCCCCCCCCCCCCC(=O)OCC(=O)[C@@]1(O)[C@H](C)C[C@H]2[C@@H]3CCC4=CC(=O)C=C[C@]4(C)[C@@]3(F)[C@@H](O)C[C@@]21C [dexamethasone palmitate]

>  <LD50>
420 mg/kg

$$$$
